Structures can show the parent of a compound that is named as a salt.
// reported melting point per item
Please state the figure in °C; there is no need to write the unit.

Record excerpt, results attached:
                                   molecule  quantitative_result
0  N#Cc1ccc(N2C(=O)C3(CCC3)N(c3ccc(OC4CCNCC4)cc3)C2=S)cc1Cl                  211
1  CC1(C)C(=O)N(c2ccc(C#N)c(Cl)c2)C(=S)N1c1ccc(OC2CCNCC2)nc1 (as salt: hydrochloride)                216.5

The recorded melting point for entry CN1CCC(Oc2ccc(N3C(=S)N(c4ccc(C#N)c(Cl)c4)C(=O)C3(C)C)cc2)CC1 (as salt: hydrochloride) equals 251.7

The recorded melting point for entry "N#Cc1ccc(N2C(=O)C3(CCC3)N(c3ccc(OC4CCNCC4)cc3)C2=S)cc1C(F)(F)F" equals 172.4

# credit: patent US20190337924A1
